Source: patent US20110039763A1

tested on: microorganisms; assay: Targeting peptide binding to target microorganisms (Tables 3, 10, 12); conditions: microorganism(s) the targeting peptide binds; binding in aqueous buffers varied with peptide solubility, preferably 1x PBS
measure: Target(s)

PF-685 (PTLWLACL; Peptide with targeting and/or antimicrobial activity) :: Mycobacteria spp
PF-646 (chain 1 APASPGRRPG; chain 2 APASPGRRPG; Peptide with targeting and/or antimicrobial activity) :: Mycobacteria spp
PF-665 (chain 1 VLRVATAVGEVPTGL; chain 2 VLRVATAVGEVPTGL; Peptide with targeting and/or antimicrobial activity) :: Mycobacteria spp

###

tested on: microorganisms; assay: Morphology, biofilm and growth disrupting peptides (Table 5); assay type: cell-based; set-up: key: A: Peptide aggregates; B: Less hyphal formation; Clumps; Diffuse clumps and small polyps; F: Diffuse growth; H: Thin; I: Growth inhibition; Microcolony formation; Rippled; Small polyps; Thick; W: Halo formation on top, microlonies on bottom; conditions: S. pneumoniae
measure: Organism, effect

PF-653 (chain 1 QSVHPLPAETPVADVI; chain 2 QSVHPLPAETPVADVI; Peptide with targeting and/or antimicrobial activity) :: S. pneumoniae (H)
PF-762: peptide having multiple activities (PAPAPSAPAPAPEQPEQPA; Peptide with targeting and/or antimicrobial activity) :: S. pneumoniae (H)
PF-563: peptide having multiple activities (RPELDNELDVVQNSASLDKLQASYN; Peptide with targeting and/or antimicrobial activity) :: S. pneumoniae (H)

###

test system: microorganisms; assay: Morphology, biofilm and growth disrupting peptides (Table 5); type: cell-based; parameters: key: A: Peptide aggregates; B: Less hyphal formation; Clumps; Diffuse clumps and small polyps; F: Diffuse growth; H: Thin; I: Growth inhibition; Microcolony formation; Rippled; Small polyps; Thick; W: Halo formation on top, microlonies on bottom; settings: MRSA
measure: Organism, effect: MRSA

Recorded Organism, effect: MRSA, per entry:
PF-001: peptide having multiple activities (MNNWIIVAQLSVTVINEIIDIMKEKQKGGK; Peptide with targeting and/or antimicrobial activity) :: MRSA (R)
PF-012: peptide having multiple activities (WRGPNTEAGGKSANNIVQVGGAPT; Peptide with targeting and/or antimicrobial activity) :: MRSA (R)
PF-356: peptide having multiple activities (chain 1 VSIKIGAIVIGMIGLMELLTE; chain 2 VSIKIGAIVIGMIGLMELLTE; Peptide with targeting and/or antimicrobial activity) :: MRSA (C)
PF-149: peptide having multiple activities (chain 1 GKVSVLTRVPRSLGGAPANQ; chain 2 GKVSVLTRVPRSLGGAPANQ; Peptide with targeting and/or antimicrobial activity) :: MRSA (H)
PF-374: peptide having multiple activities (chain 1 HLFFVKGMFILCQKNQINDE; chain 2 HLFFVKGMFILCQKNQINDE; Peptide with targeting and/or antimicrobial activity) :: MRSA (M)

Entry under review: PF-381: peptide having multiple activities (chain 1 QGANPCQQVGFTVNDPDCRLAKTV; chain 2 QGANPCQQVGFTVNDPDCRLAKTV; Peptide with targeting and/or antimicrobial activity) . Reported Organism, effect: MRSA? MRSA (C)

Entry under review: PF-191: peptide having multiple activities (QFCNFAWLFLASNNAQVSALA; Peptide with targeting and/or antimicrobial activity) . Reported Organism, effect: MRSA? MRSA (H)

Entry under review: PF-027: peptide having multiple activities (HNARKYLEFISQKIDGDKLTKEDSL; Peptide with targeting and/or antimicrobial activity) . Reported Organism, effect: MRSA? MRSA (M)

Entry under review: PF-140: peptide having multiple activities (chain 1 FHRRVIRASEWALTTRSFSTPLRSAAR; chain 2 FHRRVIRASEWALTTRSFSTPLRSAAR; Peptide with targeting and/or antimicrobial activity) . Reported Organism, effect: MRSA? MRSA (M)

Entry under review: PF-063: peptide having multiple activities (IAAIIVLVLFQKGLLQIFNWILIQLQ; Peptide with targeting and/or antimicrobial activity) . Reported Organism, effect: MRSA? MRSA (M)

Entry under review: PF-360: peptide having multiple activities (chain 1 MEQKVKVIFVPRSKPDNQLKTFVSAVLFKA; chain 2 MEQKVKVIFVPRSKPDNQLKTFVSAVLFKA; Peptide with targeting and/or antimicrobial activity) . Reported Organism, effect: MRSA? MRSA (H)

Entry under review: PF-376: peptide having multiple activities (chain 1 MTVFEALMLAIAFATLIVKISNKNDKK; chain 2 MTVFEALMLAIAFATLIVKISNKNDKK; Peptide with targeting and/or antimicrobial activity) . Reported Organism, effect: MRSA? MRSA (C)

Entry under review: PF-413: peptide having multiple activities (chain 1 TFAGSIKIGVPDLVHVTFNCKR; chain 2 TFAGSIKIGVPDLVHVTFNCKR; Peptide with targeting and/or antimicrobial activity) . Reported Organism, effect: MRSA? MRSA (C)

Entry under review: PF-043: peptide having multiple activities (MIKNETAYQMNELLVIRSAYAK; Peptide with targeting and/or antimicrobial activity) . Reported Organism, effect: MRSA? MRSA (R)

Entry under review: PF-010: peptide having multiple activities (MDIDVNKLLQAFVYFKSFEKLRHNNS; Peptide with targeting and/or antimicrobial activity) . Reported Organism, effect: MRSA? MRSA (R)

Entry under review: PF-403: peptide having multiple activities (chain 1 LLSTEQLLKYYDGETFDGFQLPSNE; chain 2 LLSTEQLLKYYDGETFDGFQLPSNE; Peptide with targeting and/or antimicrobial activity) . Reported Organism, effect: MRSA? MRSA (M)

Entry under review: PF-058: peptide having multiple activities (FADQSQDNA; Peptide with targeting and/or antimicrobial activity) . Reported Organism, effect: MRSA? MRSA (M)
